Test system: melanin
runDescription: Compound binding to melanin
Type: in vitro ADME
conditionDescription: cuttlefish (Sepia officinalis), melanin suspension (1 mg/mL), percentage of free drug (not bound to melanin), 2 µM compound, melanin 1 mg/mL in PBS pH 7.4, 37°C
parameterMeasured: fraction unbound at 2 h, 2 µM

Fill in fraction unbound at 2 h, 2 µM for "CCN(CC)CCc1ccc(/C=C/c2n[nH]c3cc(Sc4ccccc4C(=O)NC4CC4)ccc23)nc1" tested with melanin.
0.01 to 0.05

Fill in fraction unbound at 2 h, 2 µM for "CNC(=O)c1cccc(F)c1Sc1ccc2c(/C=C/c3cnn(CCCN4CCCC4)c3)n[nH]c2c1" tested with melanin.
> 0.05

Fill in fraction unbound at 2 h, 2 µM for CNC(=O)c1ccccc1Sc1ccc2c(/C=C/c3ccc(OCC4CCCN4C)cn3)n[nH]c2c1 (stereo not drawn) tested with melanin.
0.01 to 0.05

Fill in fraction unbound at 2 h, 2 µM for "CCN(CC)CCc1ccc(/C=C/c2n[nH]c3cc(Sc4ccc(F)cc4C(=O)NC4CC4)ccc23)nc1" tested with melanin.
> 0.05

Fill in fraction unbound at 2 h, 2 µM for "CNC(=O)c1ccc(F)cc1Sc1ccc2c(/C=C/c3ccc(OCCN4CCCC4)cn3)n[nH]c2c1" tested with melanin.
0.01 to 0.05

Fill in fraction unbound at 2 h, 2 µM for "CNC(=O)c1ccccc1Sc1ccc2c(/C=C/c3ccc(OCCC4CCN(C)CC4)cn3)n[nH]c2c1" tested with melanin.
0.01 to 0.05

Fill in fraction unbound at 2 h, 2 µM for "CNC(=O)c1ccccc1Sc1cnc2c(/C=C/c3ccccn3)n[nH]c2c1" tested with melanin.
0.01 to 0.05

Fill in fraction unbound at 2 h, 2 µM for "CNC(=O)c1ccccc1Sc1ccc2c(NC(=O)NCCN3CCN(C)CC3)n[nH]c2c1" tested with melanin.
0.01 to 0.05

Fill in fraction unbound at 2 h, 2 µM for "O=C(NC1CC1)c1cc(F)ccc1Sc1ccc2c(/C=C/c3ccc(CN4CCCC4)cn3)n[nH]c2c1" tested with melanin.
0.01 to 0.05
